Taken from patent US20030109522A1.

# TARGET_OR_TEST_SYSTEM: human neuronal constitutive NOS (hncNOS) (Homo sapiens, UniProt P29475)
# Sequence (P29475 whole entry): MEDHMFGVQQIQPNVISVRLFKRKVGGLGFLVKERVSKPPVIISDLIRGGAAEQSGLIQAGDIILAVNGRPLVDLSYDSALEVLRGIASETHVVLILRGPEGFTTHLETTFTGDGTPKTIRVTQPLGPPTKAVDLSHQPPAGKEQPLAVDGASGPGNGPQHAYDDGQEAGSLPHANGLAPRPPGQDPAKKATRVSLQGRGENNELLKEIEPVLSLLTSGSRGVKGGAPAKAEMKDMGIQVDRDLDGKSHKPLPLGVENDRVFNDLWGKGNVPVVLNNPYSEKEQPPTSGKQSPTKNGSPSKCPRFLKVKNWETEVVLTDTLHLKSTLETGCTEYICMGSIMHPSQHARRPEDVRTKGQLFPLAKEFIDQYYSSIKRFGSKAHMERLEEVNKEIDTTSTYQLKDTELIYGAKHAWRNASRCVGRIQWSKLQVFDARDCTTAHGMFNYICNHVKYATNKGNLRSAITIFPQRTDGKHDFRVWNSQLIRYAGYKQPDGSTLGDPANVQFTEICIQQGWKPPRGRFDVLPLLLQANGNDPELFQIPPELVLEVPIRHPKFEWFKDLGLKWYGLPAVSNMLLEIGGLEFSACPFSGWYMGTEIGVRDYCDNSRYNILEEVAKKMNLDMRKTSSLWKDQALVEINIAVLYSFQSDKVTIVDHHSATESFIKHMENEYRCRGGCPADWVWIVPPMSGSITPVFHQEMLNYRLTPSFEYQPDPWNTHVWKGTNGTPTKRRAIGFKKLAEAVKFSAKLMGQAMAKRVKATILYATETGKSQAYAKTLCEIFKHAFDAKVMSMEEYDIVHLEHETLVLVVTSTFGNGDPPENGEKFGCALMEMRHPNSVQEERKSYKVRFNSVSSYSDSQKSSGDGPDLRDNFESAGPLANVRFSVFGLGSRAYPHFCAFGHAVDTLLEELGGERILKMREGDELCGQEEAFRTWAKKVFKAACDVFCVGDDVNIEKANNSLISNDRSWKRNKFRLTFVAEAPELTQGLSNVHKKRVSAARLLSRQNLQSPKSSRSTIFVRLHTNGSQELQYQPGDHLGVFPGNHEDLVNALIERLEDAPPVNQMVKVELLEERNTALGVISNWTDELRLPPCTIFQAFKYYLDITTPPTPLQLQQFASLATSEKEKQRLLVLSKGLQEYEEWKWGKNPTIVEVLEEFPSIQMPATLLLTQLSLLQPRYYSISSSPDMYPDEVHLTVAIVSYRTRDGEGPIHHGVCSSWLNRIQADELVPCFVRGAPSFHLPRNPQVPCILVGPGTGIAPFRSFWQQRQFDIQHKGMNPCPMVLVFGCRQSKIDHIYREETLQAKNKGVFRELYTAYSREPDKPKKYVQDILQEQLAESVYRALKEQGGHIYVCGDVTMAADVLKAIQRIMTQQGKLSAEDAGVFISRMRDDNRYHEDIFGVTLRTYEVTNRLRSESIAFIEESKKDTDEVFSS
pIC50: −log10 of the molar value. Where a name gives a salt, the structure may show the parent alone.
PROPERTY: pIC50

CC(=N)NC/C(F)=C\CC[C@@](C)(N)C(=O)O [Example JJ, Dihydrochloride] : 3.23
CC(=N)NC/C=C/C[C@@](C)(N)C(=O)O [Example DD, Dihydrochloride] : 4.51
CC(=N)NC/C=C\CC[C@@](C)(N)C(=O)O [Example MM, Dihydrochloride] : 2.83
CC(=N)NC/C=C\CC[C@](C)(N)C(=O)O.Cl.Cl [Example LL, Dihydrochloride] : 4.92
